Source of measurements: the supplement of paper PMC8866396

# Test system: IL-6-GFP PC-9GR
# testSummary: cell viability (CCK-8 OD) relative to DMSO control (fraction of control); higher = more viable cells
# details: compound concentration: 10 uM; treatment time: 48 h
// returns no unless cell viability is strictly below 0.9, in which case yes

INSERT INTO measurements (compound, labelclass) VALUES
  ('O=C(c1ccc(OCCN2CCCCC2)cc1)c1c(-c2ccc(O)cc2)sc2cc(O)ccc12', 'yes'),
  ('CC(C)=CCCC(C)(OC1OC(CO)C(O)C(O)C1O)C1CCC2(C)C1C(O)CC1C3(C)CCC(O)C(C)(C)C3C(OC3OC(CO)C(O)C(O)C3O)CC12C (stereo not given) [Ginsenoside Rg1]', 'no'),
  ('CN1CCC(=C2c3ccccc3C=Cc3ccccc32)CC1.Cl [Cyproheptadine hydrochloride]', 'yes'),
  ('COc1cc2nccc(Oc3ccc(NC(=O)NC4CC4)c(Cl)c3)c2cc1C(N)=O [Lenvatinib (E7080)]', 'no'),
  ('CONC(=O)Nc1ccc(-c2sc3c(c2CN(C)C)c(=O)n(-c2ccc(OC)nn2)c(=O)n3Cc2c(F)cccc2F)cc1', 'no'),
  ('CNC(=O)c1cc(Oc2ccc(NC(=O)Nc3ccc(Cl)c(C(F)(F)F)c3)c(F)c2)ccn1', 'yes'),
  ('COc1c2occc2cc2ccc(=O)oc12', 'no'),
  ('COC1CC2CCC(C)C(O)(O2)C(=O)C(=O)N2CCCCC2C(=O)OC(C(C)CC2CCC(OP(C)(C)=O)C(OC)C2)CC(=O)C(C)/C=C(\C)C(O)C(OC)C(=O)C(C)CC(C)/C=C/C=C/C=C/1C (stereo not given)', 'no'),
  ('Cc1ccc(Nc2c(F)cccc2Cl)c(CC(=O)O)c1', 'yes'),
  ('Cc1cc(C(C)(C)C)cc(C)c1CC1=NCCN1', 'yes'),
  ('CCC1(O)C(=O)OCc2c1cc1n(c2=O)Cc2cc3cc(O)ccc3nc2-1 (stereo not given) [Hydroxy Camptothecine]', 'yes'),
  ('O=C(O)COc1nn(Cc2ccccc2)c2ccccc12', 'no'),
  ('Cc1c(Cl)cccc1Nc1ncccc1C(=O)O', 'yes'),
  ('CN(C)CCC(c1ccc(Br)cc1)c1ccccn1.O=C(O)/C=C\C(=O)O (stereo not given) [Brompheniramine hydrogen maleate]', 'no'),
  ('CNC(=O)c1c(C)oc2cc(Oc3ncnc4cc(OC)c(OC)cc34)ccc12', 'no'),
  ('CCc1nc(C(N)=O)c(Nc2ccc(N3CCC(N4CCN(C)CC4)CC3)c(OC)c2)nc1NC1CCOCC1', 'yes'),
  ('COc1ccc(-c2cc(=S)ss2)cc1', 'yes'),
  ('CCOC(=O)N1CCC(=C2c3ccc(Cl)cc3CCc3cccnc32)CC1', 'no'),
  ('Cc1c(C(=O)Nc2ccc(N3CC(C)OC(C)C3)nc2)cccc1-c1ccc(OC(F)(F)F)cc1 (stereo not given) [Sonidegib (Erismodegib, NVP-LDE225)]', 'no'),
  ('OCC1OC(OCC2OC(O)C(O)C(OC3OC(CO)C(O)C(OC4OC(CO)C(O)C(OC5OC(COC6OC(CO)C(O)C(O)C6O)C(O)C(OC6OC(CO)C(O)C(O)C6O)C5O)C4O)C3O)C2O)C(O)C(O)C1O (stereo not given)', 'yes'),
  ('CN(N=O)C(=O)NC1C(O)OC(CO)C(O)C1O (stereo not given) [Streptozotocin (STZ)]', 'no'),
  ('O.O.O=C([O-])CCNC(=O)c1ccc(N=Nc2ccc(O)c(C(=O)[O-])c2)cc1.[Na+].[Na+] [Balsalazide disodium]', 'no'),
  ('O=C(Nc1ccc(O)cc1)c1ccccc1O', 'no'),
  ('Oc1ccc(/C=C/c2cc(O)cc(O)c2)cc1', 'no'),
  ('CCCCCCNC(=O)n1cc(F)c(=O)[nH]c1=O', 'no'),
  ('CCc1cccc2c3c([nH]c12)C(CC)(CC(=O)O)OCC3 (stereo not given)', 'no'),
  ('Nc1nc(Cl)nc2c1ncn2C1CC(O)C(CO)O1 (stereo not given)', 'no'),
  ('COc1cccc2c1C(=O)c1c(O)c3c(c(O)c1C2=O)CC(O)(C(=O)CO)CC3OC1CC(N)C(O)C(C)O1.Cl (stereo not given) [Doxorubicin (Adriamycin) HCl]', 'yes'),
  ('CCCS(=O)(=O)Nc1ccc(F)c(C(=O)c2c[nH]c3ncc(-c4ccc(Cl)cc4)cc23)c1F', 'no');
